# study_target: T1, BVDV NS4B-His recombinant protein (Bovine viral diarrhea virus 1, GenBank …)
# T1 construct: also called recombinant NS4B protein
# assay_method_text: ELISA; iELISA; NS4B-His or the control BVDV-NS5A-His as coating antigen; the nine nanobodies added; anti-E-tag detection
# condition_description: one partner purified
assay_endpoint: binding result

Nb85 (VHH) VHH: LQESGGGSVQAGGSLRLSCVSSEYSGTIFAMGWFRQAPGKEREGVAVVDSAITKHYADSVKGRFTISRDNAKNRLDLQMDSLKPEDTGMYYCARSRGYLAGASATLRPTNYDDWGQGTQVTVSS :: binds
Nb70 (VHH) VHH: LQESGGGSVQAGGSLRLSCTASTFTYISLYMGWFRQAPGKEREGVAGIYAGGGDTYYADSVKGRFTISQDDAKRTVYLQMNSLKPEDTAMYYCAADRGPSRWDFRSWGQGTQVTVSS :: binds
Nb27 (VHH) VHH: LQESGGGSVQAGGSLKLSCAASGPIFRRCGMGWYRQAPGKEREVVSGINDAGTASYADSVKGRFTISQDNAKNMLYLQMNSLKTEDTAVYYCAGRKYYDVGNYCSVDLYWGQGTQVTVSS :: binds
Nb67 (VHH) VHH: LQESGGGLVQAGGSLRLSCTASGLNVDNYEMGWFRQAPGKEREGIAQISCSGAMTYYADSVKGRFTISRDNAKKTLYLQMNSLTPEDTAMYYCAAQTRVCGLWTSRGPEMESDFDAWGQGTQVTVSS :: binds

Kindly consider the entry below.
Entry Nb72 (VHH) VHH: LQKAGGVSEQAGASLRLSCVLSARIYGRCCLLWFRQDPGNREGISSINTDGKTSYTDSGKDRFTVSQYTDYNILQLQMNSLKPDDTAVYYCGATERVGDICTEYKYRGQGTQVTVSS , binding result reported as binds

Cited source for all entries: paper PMC12741062
